These data points were gathered from patent US20220104493A1.

Tested on: Euphorbia heterophylla (EPHHL)
Test: Post-emergence efficacy, Method A
Type: in vivo
Conditions: 500 g/Ha, 100=total damage to plant, 0=no damage, evaluated after 7 and 14 days, read-out: Control of weed species after post-emergence application, EPHHL

{"columns": ["compound", "pest or weed control at 500 g/ha"],
 "data": [
  ["O=S(=O)([O-])CC[n+]1ccc(-c2ncns2)cc1 [Compound A5]", "100%"],
  ["O=S(=O)([O-])C[n+]1ccc(-c2cnns2)cc1 [Compound A3]", "80%"],
  ["CS(=O)(=O)c1c[n+](CCC(=O)O)ccc1-c1ncns1 [Compound A93]", "30%"],
  ["O=S(=O)([O-])CCC[n+]1ccc(-c2nnco2)cc1 [Compound A17]", "50%"],
  ["Cc1nnc(-c2cc[n+](CC(=O)O)cc2)s1 [Compound A95]", "10%"],
  ["COC(=O)C[n+]1ccc(-c2cnns2)cc1 [Compound A8]", "60%"],
  ["Cn1nnc(-c2cc[n+](CCS(=O)(=O)[O-])cc2)n1 [Compound A27]", "20%"],
  ["O=C(O)CC[n+]1ccc(-c2nc(C(F)(F)F)ns2)c(Br)c1 [Compound A79, acetate]", "60%"],
  ["O=C(O)CC[n+]1ccc(-c2ncns2)c(F)c1 [Compound A55]", "10%"]
]}

###

Tested on: Euphorbia heterophylla (EPHHL)
Test: Post-emergence efficacy, Method A
Type: in vivo
Conditions: 500 g/Ha, 100=total damage to plant, 0=no damage, evaluated after 7 and 14 days, read-out: Control of weed species after post-emergence application, EPHHL
Reported pest or weed control at 500 g/ha values for a set of compounds

{"columns": ["compound", "system tested", "output unit", "pest or weed control at 500 g/ha"],
 "data": [
  ["O=S(=O)([O-])OCC[n+]1ccc(-c2csnn2)cc1", "Euphorbia heterophylla (EPHHL)", "%", 20],
  ["Cn1nccc1-c1cc[n+](CCOS(=O)(=O)[O-])cc1", "Euphorbia heterophylla (EPHHL)", "%", 20],
  ["Cn1nnnc1-c1cc[n+](CCS(=O)(=O)[O-])cc1", "Euphorbia heterophylla (EPHHL)", "%", 20],
  ["CC(C(=O)O)[n+]1ccc(-c2ncns2)cc1 (centres unmarked)", "Euphorbia heterophylla (EPHHL)", "%", 20],
  ["COC(=O)C[n+]1ccc(-c2nnco2)cc1", "Euphorbia heterophylla (EPHHL)", "%", 20]
]}

###

Property: pest or weed control at 500 g/ha; scope: individual molecules
System: Ipomoea hederacea (IPOHE)
Experiment: Post-emergence efficacy, Method A
Type: in vivo
Settings: 500 g/Ha, 100=total damage to plant, 0=no damage, evaluated after 7 and 14 days, read-out: Control of weed species after post-emergence application, IPOHE

{"columns": ["molecule", "pest or weed control at 500 g/ha [%]"],
 "data": [
  ["N#Cc1nsc(-c2cc[n+](CCC(=O)O)cc2)n1", 10],
  ["O=S(=O)([O-])CC[n+]1ccc(-c2nc(C(F)(F)F)cs2)cc1", 10],
  ["Cc1nc(-c2cc[n+](CCCS(=O)(=O)[O-])cc2)no1", 30],
  ["CNC(=O)c1cc(-c2cc[n+](CCCS(=O)(=O)[O-])cc2)on1", 10],
  ["Cn1nnnc1-c1cc[n+](CC(=O)O)cc1", 0],
  ["O=C(O)C[n+]1ccc(-c2ccns2)cc1", 10],
  ["O=C(O)C[n+]1ccc(-c2nc(C(F)(F)F)co2)cc1", 0],
  ["O=S(=O)([O-])C[n+]1ccc(-c2nc(C(F)(F)F)ns2)cc1", 100],
  ["O=C(O)C[n+]1ccc(-c2nc(C(F)(F)F)cs2)cc1", 0],
  ["O=C(O)C[n+]1ccc(-c2ccno2)cc1", 20],
  ["Cc1nnc(-c2cc[n+](CCCS(=O)(=O)[O-])cc2)o1", 30],
  ["OCC[n+]1ccc(-c2nnc(-c3ccccc3)o2)cc1 [Compound A69, 2,2,2-trifluoroacetate]", 20],
  ["O=S(=O)([O-])C[n+]1ccc(-c2ncns2)cc1", 100],
  ["Cc1nsc(-c2cc[n+](CS(=O)(=O)[O-])cc2)n1", 70],
  ["O=S(=O)([O-])OCC[n+]1ccc(-c2nnco2)cc1", 20],
  ["Cn1nnc(-c2cc[n+](CC(=O)O)cc2)n1", 0],
  ["O=C(O)CC[n+]1ccc(-c2nc(C(F)(F)F)co2)cc1", 0],
  ["Cn1nccc1-c1cc[n+](CCOS(=O)(=O)[O-])cc1", 10],
  ["Cn1nnnc1-c1cc[n+](CCS(=O)(=O)[O-])cc1", 10],
  ["CCOC(=O)C[n+]1ccc(-c2nncs2)cc1", 10],
  ["O=S(=O)([O-])C[n+]1ccc(-c2csnn2)cc1", 20],
  ["O=C(O)CC[n+]1ccc(-c2ncns2)c(F)c1", 30],
  ["O=C(O)CC[n+]1ccc(-c2nc(O)ns2)cc1", 10],
  ["O=C(O)C[n+]1ccc(-c2nc(O)ns2)cc1", 10],
  ["O=S(=O)([O-])C[n+]1ccc(-c2ccns2)cc1", 0],
  ["O=S(=O)([O-])CC[n+]1ccc(-c2ncns2)cc1", 70],
  ["O=S(=O)([O-])CC[n+]1ccc(-c2cnns2)cc1", 50],
  ["N#Cc1csc(-c2cc[n+](CCC(=O)O)cc2)n1", 0],
  ["CNC(=O)c1nc(-c2cc[n+](CCCS(=O)(=O)[O-])cc2)no1", 10],
  ["O=C(O)C[n+]1ccc(-c2ncno2)cc1", 30],
  ["O=S(=O)([O-])CCC[n+]1ccc(-c2cnon2)cc1", 20],
  ["O=C(O)C[n+]1ccc(-c2cnns2)cc1", 20],
  ["O=S(=O)([O-])C[n+]1ccc(-c2ccsn2)cc1", 10]
]}
